experiment: in vitro
protocol_conditions: human, REC-1 cells
Ends that are not written are not given here.
reported_metric: viability at 1.5 h, 1 µM (%)
Give just the number in %; leave the unit off.

Using the record for LLKLWSRLLKLWTQGGSGGGSGRRLKAKRAKA [FSD18] , report its viability at 1.5 h, 1 µM. 96.2

---

experiment: in vitro
protocol_conditions: human, HeLa cells, cell viability
Ends that are not written are not given here.
reported_metric: viability at 1 min, 10 µM

HHHHHHKLIHIWEAKLFKKIRAAARQARARRAAKA [FSD34] | 83.9 to 98%
YGRKKRYMLRLWYQNLRMYCKKAYAQHRARQHAKL [FSD40] | 83.9 to 98%

Using the record for HHHHHHKWKLFWEAKLAKYARAAARQARAARQARA [FSD27] , report its viability at 1 min, 10 µM. 83.9 to 98%

---

experiment: in vitro
protocol_conditions: human, REC-1 cells
Ends that are not written are not given here.
reported_metric: viability at 0.5 h, 2 µM (%)
Give just the number in %; leave the unit off.

Using the record for LLKLWSRLLKLWTQGGSGGGSGRRLKAKRAKA [FSD18] , report its viability at 0.5 h, 2 µM. 99

---

Test system: HeLa cells
experiment: GFP-NLS protein transduction assay (flow cytometry: Pos cells %, viability %, relative fluorescence intensity; microscopy)
protocol_conditions: peptide 20 μM; GFP-NLS 5 μM; 1 minute; Protocol B (Table 10.3e)
Ends that are not written are not given here.
reported_metric: cell viability

KWKLFKKIGAVLKVLTTGYARAAARQARA [CM18-PTD4] | 33.9%
KWKLFKKIGAVLKVLTTGGGSGGGSGGGSGYARAAARQARA [CM18-L3-PTD4] | increased cell viability
KWKLFKKIGAVLKVLTTGGGSGGGSYARAAARQARA [CM18-L2-PTD4] | increased cell viability
KWKLFKKIGAVLKVLTTGGGSYARAAARQARA [CM18-L1-PTD4] | increased cell viability

---

experiment: in vitro
protocol_conditions: human, THP-1 cells
Ends that are not written are not given here.
In this section, each of the sequences is paired with its reported viability at 15 s, 5 µM.
Give just the number in %; leave the unit off.

These recorded examples may help you get a feel for the data.
HHHHHHFLKIWSRLIKIWTQGRRKGAQAAFR [FSD21] | 62.5
HHHHHHLLKLWSRLLKTWTQGRRLKAKSAQASTRQAHHHHHH [FSD19] | 60.5

Using the record for HHHHHHVWKLFWTLLAAIYGRGKARQKRAKRQARG [FSD25] , report its viability at 15 s, 5 µM. 66.9

---

In this section, each of the sequences is paired with its reported Cell viability (%) (±St. Dev.; n = 3).
Tested on: HeLa cells
protocol_conditions: human, 10 s, 50 µM
Ends that are not written are not given here.
Give just the number in %; leave the unit off.

These recorded examples may help you get a feel for the data.
YARAAARQARA [PTD4, reference compound] | 94
GLFEALLELLESLWELLLEAYARAAARQARA [JST-PTD4] | 98.9
RRRRRRRRRWEAKLAKALAKALAKHLAKALAKALKACEA [9Arg-KALA] | 62.8

Form field - read-out: Cell viability (%) (±St. Dev.; n = 3); system: HeLa cells; submitted item: RRLSYSRRRFWEAKLAKALAKALAKHLAKALAKALKACEA [SynB3-KALA] 91.1

---

experiment: in vitro
protocol_conditions: human, KMS-12BM cells
Ends that are not written are not given here.
reported_metric: viability at 0.5 h, 2 µM

Using the record for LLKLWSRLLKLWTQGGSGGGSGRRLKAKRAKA [FSD18] , report its viability at 0.5 h, 2 µM. 95.1%

---

experiment: in vitro
protocol_conditions: human, HeLa cells, Cell viability (%) (±St. Dev.; n = 3)
Ends that are not written are not given here.
Label key: yes means viability under 90%; no means viability of 90% or more.

HHHHHHLLKLWRRLLKLFRKALRALAKRAKSALKRAQAA [FSN5] | yes
HHHHHHLLKLWSRLLKLWTQALRALAKRAKALAHHHHHH [FSN6] | yes
HHHHHHFRKLWLAIVRAKK [FSN8] | no

Note: attention shifts to another entry.
Bench note: check whether LIKLWSRFIKFWTQGRRIKAKLARAGQSWFG [FSN7] shows viability below 90% no

---

In this section, each of the sequences is paired with its reported Cell viability (%) (±St. Dev.; n = 3).
System: HeLa cells
experiment: GFP-NLS protein transduction assay (flow cytometry: Pos cells %, viability %, relative fluorescence intensity; microscopy)
protocol_conditions: Table 10.3a; Protocol B; HeLa; shuttle 50 μM; GFP-NLS 5 μM; 10 seconds
Ends that are not written are not given here.
The reply should read as a number followed by its unit.

These recorded examples may help you get a feel for the data.
HHHHHHKWKLFKKIGAVLKVLTTGGWTLNSAGYLLKINLKALAALAKKIL [His-CM18-Transportan (TPT)] | 41.3 ± 3.29%
HHHHHHKWKLFKKIGAVLKVLTTGYGRKKRRQRRR [His-CM18-TAT] | 35.2 ± 5.7%
HHHHHHKWKLFKKIGAVLKVLTTGRRRRRRRRR [His-CM18-9Arg] | 45.8 ± 3.53%

# next sequence below
Using the record for HHHHHHKKALLALALHHLAHLALHLALALKKAYARAAARQARA [His--PTD4] , report its Cell viability (%) (±St. Dev.; n = 3). 98 ± 1.5%

---

experiment: in vitro
protocol_conditions: human, HeLa cells
Ends that are not written are not given here.
reported_metric: viability at 1 h, 1 µM (%)
Give just the number in %; leave the unit off.

Using the record for KWKLFKKIGAVLKVLTTGYGRKKRRQRRRC [CM18-TAT-Cys] , report its viability at 1 h, 1 µM. 94

---

experiment: in vitro
protocol_conditions: human, THP-1 cells
Ends that are not written are not given here.
reported_metric: viability at 0.5 min, 2 µM (%)
Give just the number in %; leave the unit off.

These recorded examples may help you get a feel for the data.
HHHHHHLLKLWSRLLKTWTQGRRLKAKSAQASTRQAHHHHHH [FSD19] | 68.7
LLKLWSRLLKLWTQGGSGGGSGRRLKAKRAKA [FSD18] | 97.9
HHHHHHVWKLFWTLLAAIYGRGKARQKRAKRQARG [FSD25] | 79.7
HHHHHHFLKIWSRLIKIWTQGRRKGAQAAFR [FSD21] | 75.6

# next sequence below
Using the record for KWKLARAFARAIKKLGGSGGGSYARALRRQARTG [FSD10] , report its viability at 0.5 min, 2 µM. 96.3

---

experiment: in vitro
protocol_conditions: human, HCC-78 cells
Ends that are not written are not given here.
In this section, each of the sequences is paired with its reported viability at 2 min, 5 µM.
Give just the number in %; leave the unit off.

KWKLARAFARAIKKLYARALRRQARTG [FSD12] | 75.1
KWKLARAFARAIKKLGGSGGGSYARALRRQARTG [FSD10] | 83.1

# next sequence below
Using the record for HHHHHHLLKLWSRLLKLWTQGRRLKAKRAKAHHHHHH [FSD5] , report its viability at 2 min, 5 µM. 75.3

---

experiment: in vitro
protocol_conditions: human, NCI-H196 cells
Ends that are not written are not given here.
In this section, each of the sequences is paired with its reported viability at 2 min, 5 µM.
The reply should read as a number followed by its unit.

HHHHHHLLKLWSRLLKLWTQGRRLKAKRAKAHHHHHH [FSD5] | 77.2%
KWKLARAFARAIKKLYARALRRQARTG [FSD12] | 76.5%

# next sequence below
Using the record for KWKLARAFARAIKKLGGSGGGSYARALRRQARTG [FSD10] , report its viability at 2 min, 5 µM. 83.2%

---

experiment: in vitro
protocol_conditions: human, HeLa cells
Ends that are not written are not given here.
reported_metric: viability (%)
Give just the number in %; leave the unit off.

KWKLFKKIGAVLKVLTTG [CM18, reference compound] | 99.4
HHHHHHHMAHLWESNARKFWKKAFAQHAAAHIAEA [FSD28] | 97
HHHHHHKWKLFKKIGAVLKVLTTGRRRRRRRRR [His-CM18-9Arg] | 31.6

# next sequence below
Using the record for YHHHHHKWKKRWEAKLAKALRAAGRQARAKALAKA [FSD31] , report its viability. 98.4

---

experiment: in vitro
protocol_conditions: human, HeLa cells, Cell viability (%) (±St Dev.; n = 3)
Ends that are not written are not given here.
In this section, each of the sequences is paired with its reported viability.

These recorded examples may help you get a feel for the data.
HHHHHHLLKLWSRLLKTWTQGRRLKAKSAQASTRQAHHHHHH [FSD19] | 80.6%
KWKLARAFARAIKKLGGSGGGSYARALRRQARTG [FSD10] | 79.8%

# next sequence below
Using the record for HHHHHHVLKLWSRILKAFTQGRRMAAKRAKCNHHHHHH [FSD22] , report its viability. 80.2%
